Assay: soluble on expression in E. coli; label from the status in PepcDB or PDB records
value.kind: soluble on expression in E. coli

Sample records with soluble on expression in E. coli:
ordered.residues: MDNVVDRHVFYISDGTAITAEVLGHAVMSQFPVTISSITLPFVENESRARAVKDQIDAIYQQTGVRPLVFYSIVLPEIRAIILQSEGFCQDIVQALVAPLQQEMKLDPTPIAHRTHGLNPGNLNKYDARIAAIDYTLAHDDGISLRNLDQAQVILLGVSRCGKTPTSLYLAMQFGIRAANYPFIADDMDNLTLPTSLKPLQHKLFGLTIDPERLAAIREERRENSRYASLRQCRMEVAEVEALYRKNQIPCLNSTNYSVEEIATKILDIMGLNRRMYLEHHHHHH
soluble on expression in E. coli: soluble
//
ordered.residues: MAQLYFYYSAMNAGKSTALLQSSYNYQERGMRTVVYTAEIDDRFGAGKVSSRIGLSSPAKLFNQNTSLFEEIRAESARQTIHCVLVDESQFLTRQQVYQLSEVVDKLDIPVLCYGLRTDFRGELFVGSQYLLAWSDKLVELKTICFCGRKASMVLRLDQDGRPYNEGEQVVIGGNERYVSVCRKHYKDALEEGSLTAIQERHRHILEHHHHHH
soluble on expression in E. coli: soluble
//
ordered.residues: AFELPPLPYAHDALQPHISKETLEFHHDKHHNTYVVNLNNLVPGTEFEGKTLEEIVKTSSGGIFNNAAQVWNHTFYWNCLSPNAGGQPTGALADAINAAFGSFDKFKEEFTKTSVGTFGSGWGWLVKKADGSLALASTIGAGCPLTIGDTPLLTCDVWEHAYYIDYRNLRPKYVEAFWNLVNWAFVAEQFEGKTYKV
soluble on expression in E. coli: soluble
//
ordered.residues: MSLGDQYTYYMNEKEFSDFKEKSQGNYMGIGIQVAVKDGKIVVISPIQGGPAEKAGIKTGDIILKVNGEPVSGNELDKAVSMMKGTTKENIKLTLYREGHHHHPPLIRIRAPSTSLRPHSSTTTTTTEIRLLTKPERKLSWLLPPLSNN
soluble on expression in E. coli: soluble

Per the records, this sequence ( MAHHHHHHMSTSNEEDKWSAISAKKIAPKYRKGYYPNRDIMTPKKKTEKKELTYKNSKIAIGRTKSLRFRRDTVTFATKNINFQHRKKSILSKQKSMAEPKLKKQNTVALKRRKTMSRLNSMKKPPYTIVLNKKKVINMNKGMHPSENRKDKISGTTNTPLAARRMLARSKTKVLVDNETKIFKKENVKMVSSNPFNPIASSVESSRRNELENGKQKKELGTVGSANKRESAQHLSTNADKKKIYHNSVRNKLKSKKEEMFQNIISLTKNMKEKPLKKKYNDQIDPRDLLSVTSNNSSVAVDDDL ) has soluble on expression in E. coli equal to not soluble

Per the records, this sequence ( MLDKIRFTVLLDRPFYQPGQTIQGHVVCEPHHPLEIDCVEGRLHGEIQYFQQLPPNHNRNGSPLPPSKTRVLIDEKAQLWKYQTVSEMLGLDVFYDENQNRHFSSESASASSSSLFTTAATFPIQIELPHFAPPSFYCPGSPVSIRFTLEIQLYNQGFKIASHEENLVVLNYESIKRQVTPKPVNFQKTFNFPKERSISLEMLLPTDVFTTTARLENCITICNRWKQSLKYVHLNIVRRISALNQNNEVIDTVKIDTTGVGLPSKTKIAVGETYSFRPTFNVPALPPNIHVNGLFKTEYSLKVTIGRAHNFVLASYEVPITIVTMDQSSRRSMQKEDILVDISASNNTLNNLPVDLLA ) has soluble on expression in E. coli equal to not soluble

Value source: the DeepSol protein solubility set
